# key: entry, value: TGI
# System: M14 melanoma
# assay-text: NCI tumour cell line growth inhibition, 48 h

Here are 5 compounds together with their reported answers.
* COc1ccccc1Cn1[nH]c(=O)c2cc([N+](=O)[O-])ccc21 | > 100 µM
* Nc1cc(N)c(N=Nc2cccc3c(S(=O)(=O)O)cccc23)cc1N=Nc1cc([N+](=O)[O-])ccc1O | > 100 µM
* Cc1ccc(F)c2c(=O)cc(-c3ccccc3)[nH]c12 | > 100 µM
* O=c1oc2c(ccc3c(O)cccc32)c2c1CCCC2 | > 100 µM
* COc1nc(C)nc2c1ncn2Cc1ccccc1 | > 100 µM

[in] For the compound COC(=O)c1nc(N)nc(C(=O)OC)c1C(=O)c1ccccc1 , what TGI is on record?
[out] > 100 µM

[in] Same for O=CN1N=C(c2ccc(Nc3ccnc4cc(Cl)ccc34)cc2)CC1c1ccc(Cl)cc1 (stereo unspecified)
[out] > 100 µM

[in] Same for S=C(Nc1cccc(C2(N3CCCCC3)CCCCC2)c1)Nc1cccc(C2(N3CCCCC3)CCCCC2)c1
[out] 35.5 µM

[in] Same for NCCC1([N+](=O)[O-])CCNCC1
[out] > 100 µM

[in] Same for CC(Nc1n[nH]c(=O)c2c1nnn2Cc1ccccc1)c1ccccc1 (stereo unspecified)
[out] > 100 µM

[in] Same for Cc1ccc(S(=O)(=O)Nc2cc(Sc3ccccc3)c(O)c3ccccc23)cc1
[out] 19.9 µM

* * *

# Test system: T-47D breast
# assay-text: NCI tumour cell line growth inhibition, 48 h
*1 amine or outer side, *2 acyl side, *3 side chain or, on linkers, in order; H or OH if unused. Where a SMILES comes first, the peptide text is derived from it. [ ]: non-standard residue; d: D form. The star is where a group is joined. X31 = CC(=O)N(C)SCC(N[*:1])C(=O)[*:2]; Fmoc = O=C(OCC1c2ccccc2-c2ccccc21)*; For = O=C*
# key: entry, value: TGI

Here are 3 molecules together with their reported answers.
• CCCCCCC(=O)OC[n+]1cccc(-c2c(COC(=O)NC(C)C)c(COC(=O)NC(C)C)c3n2CCC3)c1 = > 100 µM
• O=c1[nH]nc(-c2ccccc2)c2c(-c3ccccc3)onc12 = > 46 µM
• COc1ccc2c(c1OC)C(=O)O[C@@H]2[C@H]1c2c(c(Br)c3c(c2OC)OCO3)CCN1C = > 100 µM

[in] Notebook: pull reported TGI for T-47D breast, entry CC(C)OP(=O)(OC(C)C)C(Nc1cccc(C(F)(F)F)c1)c1ccccc1 (stereo not given)
[out] > 100 µM

[in] Same for Cc1cc(C#N)c(Nc2ccccc2[N+](=O)[O-])s1
[out] > 100 µM

[in] Same for Cn1ncnc1C1c2n[nH]c(=O)c3cc(F)cc(c23)NC1c1ccc(F)cc1 (stereo not given)
[out] > 100 µM

[in] Same for Cc1ccc(N2C(=O)C(=O)N(/N=C3\C(=O)Nc4ccccc43)C2=S)cc1
[out] > 100 µM

[in] Same for C=CCC1C2CCC(O[Si](C(C)C)(C(C)C)C(C)C)(C(C(=O)OC)C2)C1O (stereo not given)
[out] > 100 µM

[in] Same for CC(=O)N(C)SCC(NC(=O)C(Cc1ccccc1)NC(=O)OCC1c2ccccc2-c2ccccc21)C(=O)NC(Cc1ccccc1)C(=O)NC(Cc1cn(C=O)c2ccccc12)C(=O)NC(CCCCNC(=O)OCC1c2ccccc2-c2ccccc21)C(=O)NC(C(=O)NC(CSN(C)C(C)=O)C(=O)NC(C(N)=O)C(C)O)C(C)O (stereo not given) (Fmoc-F[X31]FW(For)K(Fmoc)T[X31]T-NH2; configuration not given here)
[out] > 100 µM

[in] Same for COC(=O)[C@@H]1[C@H](O)CC[C@H]2[C@@]1(C)CC[C@@H](C)[C@]2(COC(C)=O)CC(=O)c1ccoc1
[out] > 50 µM

* * *

# System: SNB-75 CNS
# assay-text: NCI tumour cell line growth inhibition, 48 h
# key: entry, value: TGI

- [O-][n+]1c2cc(CN3CCOCC3)c(CN3CCOCC3)cc2[n+]([O-])c2c(O)cccc21: 21.3 µM
- Cc1c(C(N)=O)sc2c1c(=O)n(Cc1ccccc1)c1nnc(S(=O)(=O)CC(=O)Nc3ccc(Cl)cc3)n21: 5.48 µM
- c1cc(C[S+]2CCCC2)oc1C[S+]1CCCC1: > 100 µM
- C=CC[C@H]1[C@H](O[Si](C)(C)C(C)(C)C)C=CC(=O)[C@@H]1CC(=O)OCC: 30.1 µM
- Cc1ccc(F)c2c(=O)cc(-c3ccccc3)[nH]c12: > 100 µM

[in] Notebook: pull reported TGI for SNB-75 CNS, entry Cc1ccc(Nc2nc(C)c(C(/C=C/c3ccc4c(c3)OCO4)=N/Nc3ccc([N+](=O)[O-])cc3[N+](=O)[O-])s2)c([N+](=O)[O-])c1
[out] > 100 µM

[in] Same for CN(C)Cc1[nH]c2ccccc2c1C(=O)c1ccccc1
[out] 74.9 µM

[in] Same for COC1OC(C(C)O)C2OC(C)(C)OC12 (stereo not drawn)
[out] > 100 µM

[in] Same for CC1=C(C)C(=O)C(C2=C(C3=CC(=O)C(C)=C(C)C3=O)C(=O)c3ccccc3C2=O)=CC1=O
[out] 19.6 µM

[in] Same for N#CCN(Cc1ccccc1)[C@@H]1CCC[C@]1(O)C#Cc1ccc2c(c1)OCO2
[out] > 100 µM

* * *

# key: entry, value: TGI
# Tested on: UACC-257 melanoma
# assay-text: NCI tumour cell line growth inhibition, 48 h
Respond numerically; units are µM and should not be typed.

• COc1cc(/C=C\c2ccc(Cl)cc2)cc(OC)c1OC = 39.2
• CC(=O)n1c(-c2ccc(Cl)c(Cl)c2)cn(-c2ccc(Cl)cc2)c1=O = 66.8
• CCCOP(=S)(N1CC1)N1CC1 = 46.5

Next:
[in] For the compound CN(C)CC1=Nc2cccc3cccc(c23)N1 , what TGI is on record?
[out] 31

* * *

# Test system: SF-295 CNS
# assay-text: NCI tumour cell line growth inhibition, 48 h
endpoint: TGI

Here are 3 compounds together with their reported answers.
• O=C1c2c(ccc3c2CCCC3)CC1Cc1ccc2c(c1)CCCC2 (centres undefined) = > 100 µM
• c1cc(C[S+]2CCCC2)oc1C[S+]1CCCC1 = > 100 µM
• C=C(CC)C[C@@H]1C[C@]2(C(=O)OC)c3[nH]c4ccccc4c3CCN2C1=O = 31.1 µM

Next:
[in] For the compound CC(C)OP(=O)(OC(C)C)C(Nc1cccc(C(F)(F)F)c1)c1ccccc1 (centres undefined) , what TGI is on record?
[out] > 100 µM

* * *

# Tested on: HOP-92 NSCLC
# assay-text: NCI tumour cell line growth inhibition, 48 h
endpoint: TGI

Here are 10 compounds together with their reported answers.
• Cc1cc(Cl)ccc1NC(=O)C(=O)Cc1occc(=O)c1O = > 100 µM
• Cn1nc(C(=O)N2CC(CCl)c3c2cc([N+](=O)[O-])c2ccccc32)cc1NC(=O)Nc1cc(C(=O)N2CC(CCl)c3c2cc([N+](=O)[O-])c2ccccc32)nn1C (stereo not drawn) = > 100 µM
• CNC(=O)c1cncc(/C=C/c2c(Cl)cccc2Cl)c1 = > 25 µM
• CC(=O)Oc1cc(S(=O)(=O)Nc2n[nH]c(N)n2)c(S)cc1Cl = > 100 µM
• COC(=O)CCC1(O)C=CC(=O)C=C1 = > 100 µM
• Nc1nc(NCCOCP(=O)(O)O)c(N)c(=O)[nH]1 = > 100 µM
• CCOC(=O)C1Oc2ccc([N+](=O)[O-])cc2C1(C)O (stereo not drawn) = > 100 µM
• CC1=C(C)C(=O)C(C2=C(C3=CC(=O)C(C)=C(C)C3=O)C(=O)c3ccccc3C2=O)=CC1=O = 6.72 µM
• c1ccc(CSC(SCc2ccccc2)c2ccc3c(c2)OCO3)cc1 = > 10 µM
• Cc1cn(Cc2ccccc2CCl)c(=O)n(Cc2ccccc2CCl)c1=O = 3.62 µM

[in] For the compound COC(=O)c1nc(N)nc(C(=O)OC)c1C(=O)c1ccccc1 , what TGI is on record?
[out] > 100 µM

[in] Same for CC1=C(C(=O)Nc2ccccc2C)C(c2ccccc2C)C(C(=O)Nc2ccccc2C)=C(C)N1
[out] 29.4 µM

[in] Same for NC(=S)N/N=C/c1ccc(OC(=O)COc2ccccc2Cl)cn1
[out] > 90.3 µM

* * *

# System: RXF 393 renal
# assay-text: NCI tumour cell line growth inhibition, 48 h
endpoint: TGI (µM)
Respond numerically; units are µM and should not be typed.

Here are 3 molecules together with their reported answers.
* O=C(CN1C(=O)S/C(=C\C(Cl)=C\c2ccccc2)C1=O)NCCCn1ccnc1 | 3.68
* COc1cc2c(cc1OCCCCN1CCN(CCCCOc3cc4c(cc3OC)C(=O)N3CCC[C@H]3C=N4)CC1)N=C[C@@H]1CCCN1C2=O | 0.507
* Nc1cc(-c2ccccc2)n(C(=O)Nc2ccc(Oc3ccccc3)cc2)n1 | 68.3

[in] Notebook: pull reported TGI for RXF 393 renal, entry CCc1nc(N)nc(N)c1C#CC(C)c1cc(-c2ccnc(C)c2)c2oc(C)nc2c1 (configuration not stated)
[out] 2.71

[in] Same for CC1=C(C)C(=O)C(C2=C(C3=CC(=O)C(C)=C(C)C3=O)C(=O)c3ccccc3C2=O)=CC1=O
[out] 3.38

[in] Same for CC(=O)n1c(-c2ccc(Cl)c(Cl)c2)cn(-c2ccc(Cl)cc2)c1=O
[out] 27

Each recorded value in this set is attributed to PubChem BioAssay (NCI).
